- test.target: T1, IL-18 receptor (IL-18Rα and IL-18Rβ) (UniProt Q13478 19-541; O95256 20-599, limits assumed)
- T1 sequence (looked up) 1: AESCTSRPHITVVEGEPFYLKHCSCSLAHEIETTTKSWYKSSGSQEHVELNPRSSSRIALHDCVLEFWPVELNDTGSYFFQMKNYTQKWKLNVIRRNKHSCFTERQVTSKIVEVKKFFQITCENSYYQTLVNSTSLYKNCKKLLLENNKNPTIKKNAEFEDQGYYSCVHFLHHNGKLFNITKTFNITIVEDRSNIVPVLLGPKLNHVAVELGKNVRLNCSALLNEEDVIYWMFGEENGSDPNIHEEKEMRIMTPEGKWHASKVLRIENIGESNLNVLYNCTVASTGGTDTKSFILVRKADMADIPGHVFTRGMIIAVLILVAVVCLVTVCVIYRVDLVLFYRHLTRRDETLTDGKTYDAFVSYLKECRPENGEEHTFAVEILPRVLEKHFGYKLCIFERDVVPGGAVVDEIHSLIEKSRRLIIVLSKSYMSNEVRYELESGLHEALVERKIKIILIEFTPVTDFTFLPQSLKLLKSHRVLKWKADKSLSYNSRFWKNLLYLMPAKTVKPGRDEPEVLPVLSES
- T1 sequence (looked up) 2: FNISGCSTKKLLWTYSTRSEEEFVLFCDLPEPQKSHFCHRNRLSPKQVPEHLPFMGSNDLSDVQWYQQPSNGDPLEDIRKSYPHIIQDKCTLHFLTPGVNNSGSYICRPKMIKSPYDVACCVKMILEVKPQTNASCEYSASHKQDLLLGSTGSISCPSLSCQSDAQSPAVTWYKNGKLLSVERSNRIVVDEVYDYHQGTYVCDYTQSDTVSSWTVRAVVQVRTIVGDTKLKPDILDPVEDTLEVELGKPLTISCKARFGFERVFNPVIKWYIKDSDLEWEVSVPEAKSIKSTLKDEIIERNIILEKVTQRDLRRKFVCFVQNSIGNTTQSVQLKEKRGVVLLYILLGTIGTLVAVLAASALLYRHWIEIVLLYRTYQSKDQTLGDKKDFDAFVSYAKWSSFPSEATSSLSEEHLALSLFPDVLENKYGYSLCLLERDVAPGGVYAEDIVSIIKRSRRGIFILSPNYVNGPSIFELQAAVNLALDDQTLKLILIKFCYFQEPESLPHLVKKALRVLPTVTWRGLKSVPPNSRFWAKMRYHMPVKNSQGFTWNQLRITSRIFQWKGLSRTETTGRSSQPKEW
- assay.summary: cell-based or functional assay
assay.endpoint: PBMC IFN gamma EC50 relative to WT-IL18, average
# print the numeric value only

Solved entries (count: 4):
hIL18 (G3T, E6K, K53S, M60K) - KiH (Fc fusion) YFTKLKSKLSVIRNLNDQVLFIDQGNRPLFEDMTDSDMRDNAPRTIFIISMYSDSQPRGKAVTISVKSEKISTLSSENKIISFKEMNPPDNIKDTKSDIIFFQRSVPGHDNKMQFESSSYEGYFLASEKERDLFKLILKKEDELGDRSIMFTVQNED
0.6
hIL18 (G3V, E6K, K53S, M60K) - KiH (Fc fusion) YFVKLKSKLSVIRNLNDQVLFIDQGNRPLFEDMTDSDMRDNAPRTIFIISMYSDSQPRGKAVTISVKSEKISTLSSENKIISFKEMNPPDNIKDTKSDIIFFQRSVPGHDNKMQFESSSYEGYFLASEKERDLFKLILKKEDELGDRSIMFTVQNED
0.12
hIL18 (G3V, E6K, K53A, M60K)- KiH (Fc fusion) YFVKLKSKLSVIRNLNDQVLFIDQGNRPLFEDMTDSDMRDNAPRTIFIISMYADSQPRGKAVTISVKSEKISTLSSENKIISFKEMNPPDNIKDTKSDIIFFQRSVPGHDNKMQFESSSYEGYFLASEKERDLFKLILKKEDELGDRSIMFTVQNED
0.03
hIL18 (G3T, K53A, M60K) - KiH (Fc fusion) YFTKLESKLSVIRNLNDQVLFIDQGNRPLFEDMTDSDMRDNAPRTIFIISMYADSQPRGKAVTISVKSEKISTLSSENKIISFKEMNPPDNIKDTKSDIIFFQRSVPGHDNKMQFESSSYEGYFLASEKERDLFKLILKKEDELGDRSIMFTVQNED
1.3

Proceed to the following item.
Which PBMC IFN gamma EC50 relative to WT-IL18, average value is on record for hIL18 (G3T, K53S, M60K) - KiH (Fc fusion) YFTKLESKLSVIRNLNDQVLFIDQGNRPLFEDMTDSDMRDNAPRTIFIISMYSDSQPRGKAVTISVKSEKISTLSSENKIISFKEMNPPDNIKDTKSDIIFFQRSVPGHDNKMQFESSSYEGYFLASEKERDLFKLILKKEDELGDRSIMFTVQNED ? 6.3
